All values here come from patent US20210145976A1.

- TESTED TARGET: T1, recombinant biotinylated CD71 extracellular domain (Sino Biologics) with an N-terminal 6His tag (human, UniProt P02786 89-760, biotinylated (sites not given))
- T1 construct: extracellular domain; also called hCD71; huCD71
- T1 sequence (P02786 other isoform, or with tags, fused parts or gaps): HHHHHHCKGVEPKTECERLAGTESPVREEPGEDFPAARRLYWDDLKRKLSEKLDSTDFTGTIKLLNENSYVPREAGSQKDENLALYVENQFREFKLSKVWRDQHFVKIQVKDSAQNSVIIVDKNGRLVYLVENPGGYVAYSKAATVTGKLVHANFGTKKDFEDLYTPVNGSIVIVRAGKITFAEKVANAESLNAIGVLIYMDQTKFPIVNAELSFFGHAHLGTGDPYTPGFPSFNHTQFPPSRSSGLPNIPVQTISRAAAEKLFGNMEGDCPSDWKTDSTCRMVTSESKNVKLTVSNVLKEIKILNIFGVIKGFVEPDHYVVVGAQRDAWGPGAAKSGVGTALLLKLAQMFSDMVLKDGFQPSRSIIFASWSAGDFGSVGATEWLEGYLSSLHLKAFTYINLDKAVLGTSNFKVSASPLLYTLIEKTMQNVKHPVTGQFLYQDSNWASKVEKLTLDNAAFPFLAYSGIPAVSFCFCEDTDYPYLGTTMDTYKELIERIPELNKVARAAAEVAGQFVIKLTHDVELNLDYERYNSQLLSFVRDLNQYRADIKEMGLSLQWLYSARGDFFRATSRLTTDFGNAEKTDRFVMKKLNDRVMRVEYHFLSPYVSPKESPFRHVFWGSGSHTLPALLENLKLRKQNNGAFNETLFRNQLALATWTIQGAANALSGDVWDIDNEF
- EXPERIMENT SUMMARY: screening ELISA, ratio
For each record, check the reported hCD71:HSA: if it is below 200 write 1, else write -1.

Known results for binders:
SEQ ID NO 274 (designed binder, FN3 domain) MLPAPKNLVVSRVTEDSVRLSWTAPDAAFDSFAISYEEWWVHGEAIVLTVPGSERSYDLTGLKPGTEYSVVIPGVKGGLYSWTLSAISTT    1
SEQ ID NO 82 (designed binder, FN3 domain) MLPAPKNLVVSRVTEDSARLSWTAPDAAFDSFAIAYVEWWKLGEAIVLTVPGSERSYDLTGLKPGTEYVVPIPGVKGGGHSSPLSAIFTT    1
SEQ ID NO 103 (designed binder, FN3 domain) MLLAPKNLVVSRVTEDSARLSWTAPDAAFDSFAIEYFEYTGEGEAIVLTVPGSERSYDLTGLKPGTEYYVGIYGVKGGYLSRPLSAIFTT    -1

Ask: hey, is hCD71:HSA for SEQ ID NO 205 (designed binder, FN3 domain) MLPAPKNLVVSRVTEDSARLSWTAPDAAFDSFDIDYDEPAWNGEAIVLTVPGSERSYDLTGLKPGTEYRVFIYGVKGGNTSWPLSAIFTT lower than 200 or not?
Result: 1

Ask: Please check: hCD71:HSA for SEQ ID NO 290 (designed binder, FN3 domain) MLPAPKNLVVSRVTEDSARLSWTAPDAAFDSFFYLEQAWGGEAIVLTVPGSERSYDLTGLKPGTEYWVEITGVKGGYASSPLSAIFTT , strictly under 200 or not?
Result: -1
